Molecular target: GIRK1/4 channel (Mus musculus, UniProt P48545+P63250)
Construct: consistent with the expression of GIRK1/4 channels in the HL-1 cells; endogenous in cells
Experiment: GIRK1/4 channel FLIPR assay (DiBAC4(3) fluorescence, carbachol-stimulated HL-1 cells)
Details: HL-1 cells, DiBAC4(3); read-out: EC50 for the carbachol-sensitive fluorescent signal (activation of GIRK1/4 channel)
measure: EC50 (µM)
Provide the reading as a plain figure in µM.

EC50 reported for this compound `C[N+](C)(C)CCOC(N)=O` : 0.11

###

Target: GIRK1/4 channel (Mus musculus, UniProt P48545+P63250)
Construct: consistent with the expression of GIRK1/4 channels in the HL-1 cells; endogenous in cells
Sequence (P63250 1-501): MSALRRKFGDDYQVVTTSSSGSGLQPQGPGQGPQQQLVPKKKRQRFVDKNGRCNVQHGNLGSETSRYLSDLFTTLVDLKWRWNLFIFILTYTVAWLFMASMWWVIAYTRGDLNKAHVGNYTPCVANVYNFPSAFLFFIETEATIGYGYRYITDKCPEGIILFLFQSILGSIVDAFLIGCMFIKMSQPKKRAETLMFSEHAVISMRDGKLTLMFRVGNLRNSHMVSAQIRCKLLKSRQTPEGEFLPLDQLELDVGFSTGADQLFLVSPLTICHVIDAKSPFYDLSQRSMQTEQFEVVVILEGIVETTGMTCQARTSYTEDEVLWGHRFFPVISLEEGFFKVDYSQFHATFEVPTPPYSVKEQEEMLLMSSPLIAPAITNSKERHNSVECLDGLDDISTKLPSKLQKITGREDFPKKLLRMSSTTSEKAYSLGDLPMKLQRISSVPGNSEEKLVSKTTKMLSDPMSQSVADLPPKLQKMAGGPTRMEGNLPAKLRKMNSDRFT
Sequence (P48545 1-419): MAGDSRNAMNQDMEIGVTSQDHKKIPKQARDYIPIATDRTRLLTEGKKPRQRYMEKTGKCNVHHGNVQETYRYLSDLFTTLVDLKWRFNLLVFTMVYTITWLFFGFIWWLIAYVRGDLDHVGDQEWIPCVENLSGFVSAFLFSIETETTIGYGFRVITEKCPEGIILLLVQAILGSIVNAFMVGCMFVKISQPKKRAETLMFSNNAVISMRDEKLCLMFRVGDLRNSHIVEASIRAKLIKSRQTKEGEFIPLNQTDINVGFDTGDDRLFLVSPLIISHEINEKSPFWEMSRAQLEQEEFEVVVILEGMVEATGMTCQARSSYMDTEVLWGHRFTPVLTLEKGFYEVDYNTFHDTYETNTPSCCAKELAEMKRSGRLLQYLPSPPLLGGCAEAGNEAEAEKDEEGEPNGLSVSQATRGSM
Test: GIRK1/4 channel FLIPR assay (DiBAC4(3) fluorescence, carbachol-stimulated HL-1 cells)
Settings: HL-1 cells, DiBAC4(3), 5 min pretreatment; read-out: IC50 for drug block of the carbachol signal
measure: log10(IC50) (log10 of the value in µM)
Values reflect log10 of reported IC50 (µM).

O=C(NCC1CCCCN1)c1cc(OCC(F)(F)F)ccc1OCC(F)(F)F (centres unmarked) [flecainide] = 1.75

log10(IC50) reported for this molecule CC(C)N(C)c1nc(N)c(C(=O)N=C(N)N)nc1Cl [MIBA, 5-(N-methyl-N-isopropyl)-amiloride] : 0.30

log10(IC50) reported for this molecule NC(N)=NC(=O)c1nc(Cl)c(N2CCCCCC2)nc1N [HMA, 5-(N,N-hexamethylene)-amiloride] : -0.05

log10(IC50) reported for this molecule `C=C[C@H]1C[N@@]2CC[C@H]1C[C@@H]2[C@@H](O)c1ccnc2ccc(OC)cc12` : 1.38

log10(IC50) reported for this molecule CCN(c1nc(N)c(C(=O)N=C(N)N)nc1Cl)C(C)C [EIPA, 5-(N-ethyl-N-isopropyl)-amiloride] : -0.10

log10(IC50) reported for this molecule `NC(=Nc1ccccc1)NC(=O)c1nc(Cl)c(N)nc1N` : 1.11

log10(IC50) reported for this molecule CC(C)(C)NCC(O)COc1ccccc1C(=O)CCc1ccccc1 (centres unmarked) : 0.30

log10(IC50) reported for this molecule CCCCCCCN(CC)CCCC(O)c1ccc(NS(C)(=O)=O)cc1 (centres unmarked) [ibutilide] : 1.20

log10(IC50) reported for this molecule `NC(=NCc1ccccc1)NC(=O)c1nc(Cl)c(N)nc1N` : 1.11

log10(IC50) reported for this molecule CCCNCC(O)COc1ccccc1C(=O)CCc1ccccc1 (centres unmarked) : 0.48

log10(IC50) reported for this molecule `N/C(=N\C(=O)c1nc(Cl)c(N)nc1N)NCc1ccc(Cl)c(Cl)c1` : 1.30
